Listing of entries alongside the reported Kb.
biological target: guinea pig tracheal chain (Cavia porcellus, UniProt A0A286Y4I8); construct: The trachea was removed, freed of extraneous tissue and sectioned into rings; from tissue; host or cells: guinea pig trachea (male albino Hartley strain); assay: Estimation of pA2 values in guinea pig tracheal chain (agonist U-44069); assay type: cell-based, guinea pig (male albino Hartley strain); details: logarithmic scale; agonist U-44069; guinea pig tracheal chain
Sequence (A0A286Y4I8 1-347): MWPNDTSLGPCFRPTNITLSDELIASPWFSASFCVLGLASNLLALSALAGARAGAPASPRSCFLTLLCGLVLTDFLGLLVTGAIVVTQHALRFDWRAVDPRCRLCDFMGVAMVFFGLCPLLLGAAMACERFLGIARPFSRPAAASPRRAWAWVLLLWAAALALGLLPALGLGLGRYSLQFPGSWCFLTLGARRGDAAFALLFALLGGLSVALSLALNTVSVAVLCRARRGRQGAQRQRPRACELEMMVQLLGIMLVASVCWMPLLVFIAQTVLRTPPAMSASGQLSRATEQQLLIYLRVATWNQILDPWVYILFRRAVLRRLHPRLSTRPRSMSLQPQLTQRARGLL
// note: answer is a bare numeric in nM

* CS(=O)(=O)c1ccc(Cn2c3c(c4cc(F)cc(F)c42)CCCC(CC(=O)O)C3)cc1 (stereo not shown) | 8.32
* COc1ccc2c(c1)c1c(n2Cc2ccc(Cl)cc2)CC(CC(=O)O)CC1 (stereo not shown) [drawing 26] | 158
* O=C(O)C1CCCc2c(n(Cc3ccc(Cl)cc3)c3ccc(F)cc23)C1 (stereo not shown) | 129
* O=C(O)CC1CCCCc2c1c1cc(F)ccc1n2Cc1ccc(Cl)cc1 (stereo not shown) | 42.7
* COc1ccc2c(c1)c1c(n2Cc2ccc(Cl)cc2)CC(C(=O)O)CC1 (stereo not shown) [drawing 27] | 158
* O=C(O)CC1CCCCc2c1n(Cc1ccc(Cl)cc1)c1ccc(F)cc21 (stereo not shown) | 1.35

## Input So what's the measured Kb for this one? O=C(O)CC1CCCc2c(n(Cc3ccc(Cl)cc3)c3ccc(F)cc23)C1 (stereo not shown)
## Output 3.16
